List of EC50 values.
# system.name: corpora allata (CA) of adult female M. sexta (Manduca sexta)
# Sequence (F1CZQ1 1-457): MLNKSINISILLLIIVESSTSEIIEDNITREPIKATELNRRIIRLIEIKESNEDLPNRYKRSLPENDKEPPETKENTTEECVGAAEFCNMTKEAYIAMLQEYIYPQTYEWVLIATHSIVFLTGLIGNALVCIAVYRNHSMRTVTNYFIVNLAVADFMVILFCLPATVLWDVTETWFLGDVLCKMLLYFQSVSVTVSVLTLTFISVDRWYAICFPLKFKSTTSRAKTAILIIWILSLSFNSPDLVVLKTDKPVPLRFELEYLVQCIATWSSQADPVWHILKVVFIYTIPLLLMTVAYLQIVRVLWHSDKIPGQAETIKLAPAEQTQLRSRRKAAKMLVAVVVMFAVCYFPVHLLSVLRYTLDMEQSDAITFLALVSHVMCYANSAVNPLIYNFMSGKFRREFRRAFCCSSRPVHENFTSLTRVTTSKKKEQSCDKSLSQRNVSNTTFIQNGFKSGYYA
# assay.comment: Stimulation of JH biosynthesis in vitro by corpora allata
# Assay type: cell-based
# experimental.setup: pair of CA with corpora cardiaca from day 3 females, 3 h at 30 °C in medium 199 pH 7.2; total JH II + JH III by GC-MS/MS; 9–13 repeats per concentration; 95% CI in brackets
No end group written: not given here.
Give the number; µM is assumed, so skip it.

Illustrative cases are given below, each with its answer.
H-EMMTARGF-NH2 [Manse-AT (6–13)]
0.0184
GFKNVEMMTARGF-NH2 [Manse-AT, Manduca sexta allatotropin]
0.0009

# input for lookup
// returns reported EC50 for input H-MTARGF-NH2 [Manse-AT (8–13)]
2.49

---

# system.name: corpora allata (CA) of adult female M. sexta stimulated with Manse-AT (Manduca sexta, UniProt F1CZQ1)
# Sequence (F1CZQ1 1-457): as above
# Type: cell-based
# experimental.setup: antagonist at varying concentrations mixed with 1 nM Manse-AT; CA from day 3 females, 3 h at 30 °C; JH II + JH III by GC-MS/MS; 9–13 repeats per concentration; 95% CI in brackets; read-out: Antagonistic Effects on JH Biosynthesis IC50 (95% CI)
Residues, ends and D or L forms follow the SMILES beside them. *: point of attachment. Isobutyryl = CC(C)C(=O)*
outcome.measure: IC50 (nM)
Give the number; nM is assumed, so skip it.

// returns reported IC50 for input CC(C)C(=O)N[C@@H](CCCNC(=N)N)C(=O)NCC(=O)N[C@@H](Cc1ccccc1)C(N)=O [analog 3] (Isobutyryl-Arg-Gly-Phe-NH2)
26.1
